Source of measurements: patent US20260356856A1

Molecular target: KRas-mediated phosphorylation of ERK in MKN1 cells (Homo sapiens)
Construct: pERK HTRF read-out
Sequence (P01116 1-188 isoform P01116-2): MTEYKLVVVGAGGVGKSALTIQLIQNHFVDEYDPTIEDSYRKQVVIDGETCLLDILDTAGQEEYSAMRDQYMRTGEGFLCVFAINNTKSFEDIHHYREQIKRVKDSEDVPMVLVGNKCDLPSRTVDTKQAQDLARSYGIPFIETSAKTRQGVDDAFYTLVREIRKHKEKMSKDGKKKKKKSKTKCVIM
Test: Inhibition of KRas-mediated phosphorylation of ERK (HTRF), MKN1 cells
Format: cell-based
Settings: MKN1 cells (KRas WT); HTRF pERK; 3 h incubation
parameter: IC50 (nM)

Look over these answered cases.
>>> df
                                   compound                          target_or_system  reported_measurement
0  CCc1c(F)ccc2cc(O)cc(-c3ncc4c(N5CC[C@@H](C(=O)n6ccc(C)n6)[C@H](C)C5)nc(OC[C@@]56CCCN5C[C@H](F)C6)nc4c3F)c12  KRas-mediated phosphorylation of ERK in MKN1 cells (Homo sapiens)                  8470
1  CCc1c(F)ccc2cc(O)cc(-c3ncc4c(NC[C@@H]5C[C@@H]5C(=O)n5ccc(C)n5)nc(OC[C@@]56CCCN5C[C@H](F)C6)nc4c3F)c12  KRas-mediated phosphorylation of ERK in MKN1 cells (Homo sapiens)                   351

(a) N#Cc1c(N)sc2c(F)ccc(-c3c(Cl)cc4c(N5CCN(C(=O)n6nccn6)CC5)nc(OC[C@@]56CCCN5C[C@H](F)C6)nc4c3F)c12
(b) CC(=O)N(C)C(=O)CCCN(C)c1nc(OC[C@@]23CCCN2C[C@H](F)C3)nc2c(F)c(-c3ccc(F)c4sc(N)c(C#N)c34)c(Cl)cc12 [Example 259]
(c) Cc1ccn(C(=O)CCCN(C)c2nc(OC[C@@]34CCCN3C[C@H](F)C4)nc3c(F)c(-c4ccc(F)c5sc(N)c(C#N)c45)c(Cl)cc23)n1
(d) CCc1c(F)ccc2cc(O)cc(-c3ncc4c(N5CCC(C(=O)n6cc(N(C)C)cn6)CC5)nc(OC[C@@]56CCCN5C[C@H](F)C6)nc4c3F)c12
Query: Rank ascending by IC50. I'd appreciate it if you listed the labels in the requested order.
Result: a, b, c, d
(a: 15 nM, b: 125 nM, c: 363 nM, d: 4500 nM)
